QUANTITY_MEASURED: melting point

Worked cases, melting point given:
Input: Give recorded melting point. CCCc1cccn1NS(=O)(=O)C1CCCC=C1C(=O)OCC (stereo not given)
Output: 66 to 68 °C

Input: Give recorded melting point. O=C(NCc1ccnc(Cl)c1)c1[nH]c2ccc(Cl)cc2c1S(=O)(=O)c1ccccc1
Output: 263 to 265 °C

Input: Give recorded melting point. COc1ccc2c(O)c(C(=O)NCCO)nc(Cl)c2c1
Output: 165 to 167 °C

Next:
Input: Give recorded melting point. O=C(N[C@H]1C[C@H](C(=O)O)Nc2cc(Cl)cc(Cl)c21)C1CCCCC1 (relative stereo)
Output: 190 to 195 °C

Input: Give recorded melting point. COc1cc(CCCC2OC(=O)NC2=O)ccc1OCc1nc(-c2ccc3ccccc3c2)oc1C (stereo not given)
Output: 173 to 174 °C

Input: Give recorded melting point. COc1cc(C=NNC2=NCCc3ccccc32)cc(OC)c1O
Output: 232 to 233 °C

Input: Give recorded melting point. Cc1cc(F)ccc1-c1nc(NC2CCCCC2)nc2c1CCC(=O)N2c1ccccc1F
Output: 181 to 182 °C

Input: Give recorded melting point. CCCCCCCCCCCC(=O)Oc1ccc2[nH]c3c(C)c4ccncc4c(C)c3c2c1
Output: 188 to 190 °C

Input: Give recorded melting point. O=c1oc(-c2ccccc2)cc(O)c1S(=O)(=O)Cc1ccccc1
Output: 152 to 153 °C

Input: Give recorded melting point. CC(C)=CC(=O)N(C)c1cccc(Br)c1
Output: 92 to 94 °C

Input: Give recorded melting point. CCOc1c(N)c2c(c(OCC)c1OCC)C(C1c3c(cc4c(c3OC)OCO4)CCN1C)OC2=O (stereo not given)
Output: 180 to 182 °C

Input: Give recorded melting point. Cc1cccc(-c2nc3ccc(Cl)nn3c2-c2ccnc(Nc3ccc(F)cc3C)c2)c1
Output: 191 to 192 °C

Input: Give recorded melting point. CCCOc1c(OC)c(OC)cc(C)c1C(=O)c1c(Cl)cccc1Cl
Output: 143 °C

Input: Give recorded melting point. CCOC(=O)NNC(=O)Cc1noc(C)n1
Output: 122 to 124 °C

Input: Give recorded melting point. COc1cc2ccnc(C(S)(C#N)CCC(=O)O)c2cc1OC (stereo not given)
Output: 169 to 170 °C

Input: Give recorded melting point. CNCCn1nc2c3c(c(NCCNCCO)ccc31)C(=O)c1c(OCc3ccccc3)ccc(OCc3ccccc3)c1-2
Output: 186 to 189 °C

Input: Give recorded melting point. CCOCC1=NC(=Cc2cccs2)C(=O)O1
Output: 102 °C

Input: Give recorded melting point. COC(=O)C(O)Cc1ccc(OCCN(C)c2nc3ccccc3o2)cc1 (stereo not given)
Output: 100 to 112 °C

Input: Give recorded melting point. CCOC(=O)c1cn2c3c(c(F)c(F)c(N)c3c1=O)CCN2C
Output: 255 to 257 °C

Input: Give recorded melting point. O=C1C=CCC(CCc2ccccc2)(c2ccccc2)O1 (stereo not given)
Output: 130 °C
